- experimentalSystem: T1, human C5 (human, UniProt P01031 19-673; P01031 678-1676, Beta and alpha chains are disulfide-linked and the protein is glycosylated.)
- T1 construct: Either in-house recombinant C5 or plasma derived C5 (CALBIOCHEM) was used; also called recombinant human C5; plasma derived human C5
- measurementProtocol: Biacore, captured antibody, pH 7.4, 37 C;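 further: biacore binding response of anti-C5 antibody light chain variants captured on chip with human C5 injected, ACES running buffer containing 1.2 mM CaCl₂, parent light chain antibody set to 100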
Attribute: % binding (parent = 100)
Return type: number; implicit unit %.

// solved cases for % binding (parent = 100) follow
Data request, read-out % binding (parent = 100), for CFP0015 15L 32S (antibody, V domains shown) VH: QVQLLESGGGLVQPGGSLRLSCAASGFTFSSYAMSWVRQAPGKGLEWVSAISGSGGSTYYADSVKGRFTISRDNSKNTLYLQMNSLRAEDTAVYYCARGDQIWYDQWYYFDMWGQGTLVTVSS VL: DIQMTQSPSSLSASVGDRVTITCRASQSIEDSLAWYQQKPGKAPKLLIYEASNLQSGVPSRFSGSGSGTDFTLTISSLQPEDFATYYCQQYDSSPLTFGQGTKVEIK
167

Data request, read-out % binding (parent = 100), for CFP0015 15L 32N (antibody, V domains shown) VH: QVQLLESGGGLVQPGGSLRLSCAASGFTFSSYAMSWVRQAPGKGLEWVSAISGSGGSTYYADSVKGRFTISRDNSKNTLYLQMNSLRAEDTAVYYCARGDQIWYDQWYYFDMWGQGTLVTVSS VL: DIQMTQSPSSLSASVGDRVTITCRASQSIEDNLAWYQQKPGKAPKLLIYEASNLQSGVPSRFSGSGSGTDFTLTISSLQPEDFATYYCQQYDSSPLTFGQGTKVEIK
10.9

Moving on to the next binder.
Data request, read-out % binding (parent = 100), for CFP0015 15L 50S (antibody, V domains shown) VH: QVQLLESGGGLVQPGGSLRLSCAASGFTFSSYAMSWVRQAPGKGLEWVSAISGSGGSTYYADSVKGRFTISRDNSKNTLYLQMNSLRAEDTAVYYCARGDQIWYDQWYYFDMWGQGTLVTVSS VL: DIQMTQSPSSLSASVGDRVTITCRASQSIEDDLAWYQQKPGKAPKLLIYSASNLQSGVPSRFSGSGSGTDFTLTISSLQPEDFATYYCQQYDSSPLTFGQGTKVEIK
44.2
